# target.desc: ceh-51 (Y80D3A.3) (Caenorhabditis elegans) (UniProt Q9U1R1)
# Sequence: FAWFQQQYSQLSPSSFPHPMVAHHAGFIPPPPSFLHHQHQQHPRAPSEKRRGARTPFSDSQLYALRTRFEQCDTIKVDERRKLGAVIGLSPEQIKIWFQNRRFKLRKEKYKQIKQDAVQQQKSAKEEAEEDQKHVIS
measured.endpoint: binding signal (PBM E-score (-0.5 to 0.5))
# output: bare number, no unit

seq_text="ATTAATAG (double strand) [8-mer ATTAATAG]" target_desc="ceh-51 (Y80D3A.3) (Caenorhabditis elegans) (UniProt Q9U1R1)" quantitative_readout=0.478
seq_text="ATTAAGTG (double strand) [8-mer ATTAAGTG]" target_desc="ceh-51 (Y80D3A.3) (Caenorhabditis elegans) (UniProt Q9U1R1)" quantitative_readout=0.472
seq_text="TCAATTAA (double strand) [8-mer TCAATTAA]" target_desc="ceh-51 (Y80D3A.3) (Caenorhabditis elegans) (UniProt Q9U1R1)" quantitative_readout=0.467
seq_text="ATATAATA (double strand) [8-mer ATATAATA]" target_desc="ceh-51 (Y80D3A.3) (Caenorhabditis elegans) (UniProt Q9U1R1)" quantitative_readout=0.472
seq_text="ATATTAAT (double strand) [8-mer ATATTAAT]" target_desc="ceh-51 (Y80D3A.3) (Caenorhabditis elegans) (UniProt Q9U1R1)" quantitative_readout=0.467

As a next step, examine the sequence that follows.
Param item = GTAATTAC (double strand) [8-mer GTAATTAC] ; retrieve measured binding signal (PBM E-score (-0.5 to 0.5)).
0.478

----------
This listing pairs sequences with measured binding signal (PBM E-score (-0.5 to 0.5)).
# target.desc: ceh-90 (R03E1.4) (Caenorhabditis elegans)
# Sequence: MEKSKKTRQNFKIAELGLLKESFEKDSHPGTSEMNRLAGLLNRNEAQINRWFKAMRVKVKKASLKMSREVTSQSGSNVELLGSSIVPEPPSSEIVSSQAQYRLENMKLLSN
# output: bare number, no unit

Some sequences with known binding signal (PBM E-score (-0.5 to 0.5)) results, for comparison:
seq_text="GTTAAAAC (double strand) [8-mer GTTAAAAC]" quantitative_readout=0.492
seq_text="TAAAACCA (double strand) [8-mer TAAAACCA]" quantitative_readout=0.488
seq_text="CTTAAAAC (double strand) [8-mer CTTAAAAC]" quantitative_readout=0.494

Lookup: binding signal (PBM E-score (-0.5 to 0.5)) / ceh-90 (R03E1.4) (Caenorhabditis elegans) / AGGTTTTA (double strand) [8-mer AGGTTTTA]
0.496

----------
# target.desc: tbx-43 (Y46E12A.4) (Caenorhabditis elegans) (UniProt Q1T6W8)
# Sequence: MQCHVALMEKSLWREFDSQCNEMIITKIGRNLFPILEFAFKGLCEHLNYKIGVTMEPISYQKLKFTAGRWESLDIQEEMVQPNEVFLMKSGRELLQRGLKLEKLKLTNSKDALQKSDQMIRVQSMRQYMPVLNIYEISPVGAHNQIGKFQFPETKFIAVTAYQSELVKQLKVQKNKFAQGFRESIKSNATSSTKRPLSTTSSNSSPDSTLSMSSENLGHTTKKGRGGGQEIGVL
This listing pairs sequences with measured binding signal (PBM E-score (-0.5 to 0.5)).

seq_text="AGGTGTCA (double strand) [8-mer AGGTGTCA]" result=0.497
seq_text="GGTGCGAA (double strand) [8-mer GGTGCGAA]" result=0.48
seq_text="GGTGTGAA (double strand) [8-mer GGTGTGAA]" result=0.499
seq_text="GGGTGTGA (double strand) [8-mer GGGTGTGA]" result=0.49
seq_text="AGGTGTTA (double strand) [8-mer AGGTGTTA]" result=0.497

As a next step, examine the sequence that follows.
Param item = ATTCACAC (double strand) [8-mer ATTCACAC] ; retrieve measured binding signal (PBM E-score (-0.5 to 0.5)).
0.489

Entry source: paper PMC4434323
